Target Desc: Aurora A (Homo sapiens)
Construct: gene AURKA
Sequence (O14965 whole entry): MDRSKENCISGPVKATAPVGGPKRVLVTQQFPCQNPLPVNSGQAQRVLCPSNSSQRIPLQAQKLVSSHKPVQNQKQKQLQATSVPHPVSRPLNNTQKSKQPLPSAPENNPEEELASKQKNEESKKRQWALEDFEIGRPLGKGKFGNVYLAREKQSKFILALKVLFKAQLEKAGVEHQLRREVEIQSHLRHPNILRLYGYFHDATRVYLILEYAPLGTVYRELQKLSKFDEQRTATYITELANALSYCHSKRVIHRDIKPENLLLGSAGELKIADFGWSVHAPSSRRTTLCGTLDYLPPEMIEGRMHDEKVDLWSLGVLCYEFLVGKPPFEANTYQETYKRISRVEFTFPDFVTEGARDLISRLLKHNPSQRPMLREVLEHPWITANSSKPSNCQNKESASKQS
Run Description: radiometric […]-ATP kinase assay with purified kinase (Dundee panel; dose-response)
Assay type: biochemical
Observable: IC50 (nM)

* CC(=O)OC(C)(C)/C=C/C(=O)[C@](C)(O)[C@H]1[C@H](O)C[C@@]2(C)[C@@H]3CC=C4[C@@H](C[C@H](O)C(=O)C4(C)C)[C@]3(C)C(=O)C[C@]12C [CuB, Cucurbitacin B] | 100
